Where do the numbers come from? From patent US9708318B2.

# target_entity: FGFR2 (Homo sapiens (Human), UniProt P21802)
# Sequence (P21802 22-821): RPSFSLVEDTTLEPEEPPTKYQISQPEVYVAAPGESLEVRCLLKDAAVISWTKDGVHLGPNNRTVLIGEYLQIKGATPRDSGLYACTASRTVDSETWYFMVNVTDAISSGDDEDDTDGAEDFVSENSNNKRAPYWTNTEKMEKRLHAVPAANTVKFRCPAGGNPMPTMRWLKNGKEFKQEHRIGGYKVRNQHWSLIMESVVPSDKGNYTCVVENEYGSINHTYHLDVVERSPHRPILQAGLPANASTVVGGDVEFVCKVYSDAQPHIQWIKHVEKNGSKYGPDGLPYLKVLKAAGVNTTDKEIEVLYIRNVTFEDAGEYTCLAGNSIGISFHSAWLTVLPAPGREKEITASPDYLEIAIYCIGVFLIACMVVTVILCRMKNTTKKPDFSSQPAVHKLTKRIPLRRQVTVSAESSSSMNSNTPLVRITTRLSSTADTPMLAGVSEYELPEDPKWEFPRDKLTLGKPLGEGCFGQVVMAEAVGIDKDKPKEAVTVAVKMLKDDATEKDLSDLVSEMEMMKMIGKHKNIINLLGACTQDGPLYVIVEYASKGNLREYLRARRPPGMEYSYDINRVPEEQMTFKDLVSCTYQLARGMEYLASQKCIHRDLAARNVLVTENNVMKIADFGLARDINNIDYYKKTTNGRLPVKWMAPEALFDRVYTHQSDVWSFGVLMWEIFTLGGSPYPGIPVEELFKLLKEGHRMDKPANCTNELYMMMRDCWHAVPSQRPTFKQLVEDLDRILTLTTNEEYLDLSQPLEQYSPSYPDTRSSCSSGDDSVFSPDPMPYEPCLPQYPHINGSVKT
# assay_protocol: FGFR Enzymatic Assay (FRET peptide phosphorylation), FGFR2
# Type: biochemical
# conditions_used: pre-incubated for 4 hours
pIC50: −log10 of the molar value.
observation_type: pIC50

Recorded results for 3 molecules are shown here.
{"columns": ["chemical_structure", "reading"],
 "data": [
  ["CCN1C(=O)N(c2c(F)c(OC)cc(OC)c2F)Cc2cnc(-c3ccc(C4(C#N)CCC4)cc3)cc21", "> 8.00"],
  ["COc1cnc(N2C(=O)N(c3c(F)c(OC)cc(OC)c3F)Cc3cnc(-c4cn(C)nc4C)cc32)cn1", "> 8.00"],
  ["COc1cc(OC)c(F)c(N2Cc3cnc(-c4cn(C)nc4C)cc3N(c3cnn(C4CC4)c3)C2=O)c1F", "7.52 to 8.00"]
]}

Now, please, on to the next molecule.
Ask | State the recorded pIC50 for this entry: "COc1cc(OC)c(F)c(N2Cc3cnc(-c4cncc(C#N)c4)cc3C3(CC3)C2=O)c1F"
Reply | < 6.70
